Hey, just so you know, these numbers are from patent US20100086555A1.

Target: H1 HA A/NC/20/99 (on infectious virus) (influenza A virus A/NC/20/99 (H1N1))
Experiment: cell-based or functional assay
measured_endpoint: Neutralization of infectious viruses (IC50) (µg/mL)

INSERT INTO results (binder, data_value) VALUES
  ('FC6 (antibody, V domains shown) VH: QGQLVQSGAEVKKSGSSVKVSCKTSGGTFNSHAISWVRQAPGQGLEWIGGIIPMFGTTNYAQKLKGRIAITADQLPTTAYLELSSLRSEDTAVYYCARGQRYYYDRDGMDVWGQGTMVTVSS VL: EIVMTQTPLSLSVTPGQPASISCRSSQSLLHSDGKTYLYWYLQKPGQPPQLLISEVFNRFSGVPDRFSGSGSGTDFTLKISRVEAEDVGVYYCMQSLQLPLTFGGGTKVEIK', 40),
  ('FE43 (antibody, V domains shown) VH: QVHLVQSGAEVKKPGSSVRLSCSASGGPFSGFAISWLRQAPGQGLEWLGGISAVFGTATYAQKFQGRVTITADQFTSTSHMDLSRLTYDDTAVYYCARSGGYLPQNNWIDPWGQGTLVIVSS VL: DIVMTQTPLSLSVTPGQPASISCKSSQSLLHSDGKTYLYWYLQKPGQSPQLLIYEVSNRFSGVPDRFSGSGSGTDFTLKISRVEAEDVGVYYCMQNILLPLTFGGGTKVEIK', 40),
  ('FB139 (antibody, V domains shown) VH: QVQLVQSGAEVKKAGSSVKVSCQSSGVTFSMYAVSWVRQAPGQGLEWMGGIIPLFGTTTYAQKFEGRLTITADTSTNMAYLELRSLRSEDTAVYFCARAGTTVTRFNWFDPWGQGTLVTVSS VL: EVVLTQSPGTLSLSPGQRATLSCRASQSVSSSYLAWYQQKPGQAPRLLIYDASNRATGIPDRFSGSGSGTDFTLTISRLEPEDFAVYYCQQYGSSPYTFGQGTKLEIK', 36),
  ('FE53 (antibody, V domains shown) VH: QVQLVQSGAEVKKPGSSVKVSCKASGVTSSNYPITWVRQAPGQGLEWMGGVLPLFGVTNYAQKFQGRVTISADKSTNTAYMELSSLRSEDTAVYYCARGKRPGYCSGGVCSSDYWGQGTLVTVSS VL: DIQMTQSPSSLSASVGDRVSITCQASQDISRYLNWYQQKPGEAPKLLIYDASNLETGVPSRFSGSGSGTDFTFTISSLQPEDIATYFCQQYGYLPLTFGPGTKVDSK', 37);
